Listed next: entries and their corresponding solubility H2O.
- protocol-details: Solubility in PBS and H2O, dry powder, 24 hour timepoint
- experimental-conditions: H2O
readout-label: solubility H2O

>>> measured("CCCN1C(CO)C2c3ccccc3N(S(C)(=O)=O)CC21 (racemic) [31c]")
">500 µM"
>>> measured("CCCN1[C@H](CO)[C@H](c2ccccc2)[C@@H]1C#N [26a]")
">500 µM"
>>> measured("CCCN1[C@H](CO)[C@H](c2ccccc2)[C@@H]1CN [26b]")
">500 µM"

Cited source for all entries: paper PMC3454511
